Listing: IC50 of selected compounds
target: mTORC2 (Homo sapiens, UniProt P42345+P62942); construct: endogenous in cells; host or cells: PC3 cells (human prostate adenocarcinoma); experiment: Inhibition assay for mTORC2: phosphorylation of pAkt at Ser473, AlphaLISA SureFire in PC3 cells; type: cell-based; details: PC3 cells, 24 hours treatment, analogs substituted at C40 and C16 (C16 diastereomer mixtures not isolated), read-out: pIC50 mTORC2 (converted)
quantity name: IC50

compound | quantity name | test value
CO[C@@H]1C[C@H](C[C@@H](C)[C@@H]2CC(=O)[C@H](C)/C=C(\C)[C@@H](O)[C@@H](OC)C(=O)[C@H](C)C[C@H](C)/C=C/C=C/C=C(\C)C(OC(C)C)C[C@@H]3CC[C@@H](C)[C@@](O)(O3)C(=O)C(=O)N3CCCCC3C(=O)O2)CC[C@H]1OC(=O)NCCc1ccccc1 (some centres unmarked) | IC50 | > 10 µM
COCCOC1C[C@@H]2CC[C@@H](C)[C@@](O)(O2)C(=O)C(=O)N2CCCCC2C(=O)O[C@H]([C@H](C)C[C@@H]2CC[C@@H](OCCCO)[C@H](OC)C2)CC(=O)[C@H](C)/C=C(\C)[C@@H](O)[C@@H](OC)C(=O)[C@H](C)C[C@H](C)/C=C/C=C/C=C/1C (some centres unmarked) | IC50 | 1 to 10 µM

----------
target: mTORC1 (Homo sapiens, UniProt P42345+P62942); construct: endogenous in cells; host or cells: PC3 cells (human prostate adenocarcinoma); test: Inhibition assay for mTORC1: phosphorylation of pS6K at Thr389, AlphaLISA SureFire in PC3 cells; assay type: cell-based; details: PC3 cells, 24 hours treatment, pS6K Thr389; analogs substituted at C40 and C16 (C16 diastereomer mixtures not isolated); read-out: pIC50 mTORC1 (converted)

compound | IC50
COCCCO[C@@H]1CC[C@@H](C[C@@H](C)[C@@H]2CC(=O)[C@H](C)/C=C(\C)[C@@H](O)[C@@H](OC)C(=O)[C@H](C)C[C@H](C)/C=C/C=C/C=C(\C)C(OCCOC)C[C@@H]3CC[C@@H](C)[C@@](O)(O3)C(=O)C(=O)N3CCCCC3C(=O)O2)C[C@H]1OC (stereo partly drawn) [Compound 14] | < 0.316 nM
COCCOC1C[C@@H]2CC[C@@H](C)[C@@](O)(O2)C(=O)C(=O)N2CCCCC2C(=O)O[C@H]([C@H](C)C[C@@H]2CC[C@@H](OC(=O)NCCN3CCCCC3)[C@H](OC)C2)CC(=O)[C@H](C)/C=C(\C)[C@@H](O)[C@@H](OC)C(=O)[C@H](C)C[C@H](C)/C=C/C=C/C=C/1C (stereo partly drawn) [Compound 57] | < 0.316 nM
CO[C@@H]1C[C@H](C[C@@H](C)[C@@H]2CC(=O)[C@H](C)/C=C(\C)[C@@H](O)[C@@H](OC)C(=O)[C@H](C)C[C@H](C)/C=C/C=C/C=C(\C)C(OC(C)C)C[C@@H]3CC[C@@H](C)[C@@](O)(O3)C(=O)C(=O)N3CCCCC3C(=O)O2)CC[C@H]1OCCCc1ccccc1 (stereo partly drawn) [Compound 96] | > 3.16 nM

----------
molecular target: mTORC2 (Homo sapiens, UniProt P42345+P62942); construct: endogenous in cells; host or cells: PC3 cells (human prostate adenocarcinoma); experiment: Inhibition assay for mTORC2: phosphorylation of pAkt at Ser473, AlphaLISA SureFire in PC3 cells; assay type: cell-based; conditions: PC3 cells, 24 hours treatment, analogs substituted at C40 and C16 (C16 diastereomer mixtures not isolated), read-out: pIC50 mTORC2 (converted)

compound | test target | IC50
COCCOC1C[C@@H]2CC[C@@H](C)[C@@](O)(O2)C(=O)C(=O)N2CCCCC2C(=O)O[C@H]([C@H](C)C[C@@H]2CC[C@@H](OC(=O)N(C)CCN3CCOCC3)[C@H](OC)C2)CC(=O)[C@H](C)/C=C(\C)[C@@H](O)[C@@H](OC)C(=O)[C@H](C)C[C@H](C)/C=C/C=C/C=C/1C (stereo partly shown) | mTORC2 (Homo sapiens, UniProt P42345+P62942) | 1 to 10 µM
COCCOC1C[C@@H]2CC[C@@H](C)[C@@](O)(O2)C(=O)C(=O)N2CCCCC2C(=O)O[C@H]([C@H](C)C[C@@H]2CC[C@@H](OC(=O)NCCN3CCOCC3)[C@H](OC)C2)CC(=O)[C@H](C)/C=C(\C)[C@@H](O)[C@@H](OC)C(=O)[C@H](C)C[C@H](C)/C=C/C=C/C=C/1C (stereo partly shown) | mTORC2 (Homo sapiens, UniProt P42345+P62942) | 1 to 10 µM
CO[C@@H]1C[C@H](C[C@@H](C)[C@@H]2CC(=O)[C@H](C)/C=C(\C)[C@@H](O)[C@@H](OC)C(=O)[C@H](C)C[C@H](C)/C=C/C=C/C=C(\C)C(OCCc3ccccc3)C[C@@H]3CC[C@@H](C)[C@@](O)(O3)C(=O)C(=O)N3CCCCC3C(=O)O2)CC[C@H]1OC(=O)NCCN1CCOCC1 (stereo partly shown) | mTORC2 (Homo sapiens, UniProt P42345+P62942) | < 1 µM
CO[C@@H]1C[C@H](C[C@@H](C)[C@@H]2CC(=O)[C@H](C)/C=C(\C)[C@@H](O)[C@@H](OC)C(=O)[C@H](C)C[C@H](C)/C=C/C=C/C=C(\C)C(OCCO)C[C@@H]3CC[C@@H](C)[C@@](O)(O3)C(=O)C(=O)N3CCCCC3C(=O)O2)CC[C@H]1OC(=O)N(C)CCN1CCOCC1 (stereo partly shown) | mTORC2 (Homo sapiens, UniProt P42345+P62942) | 1 to 10 µM
CO[C@@H]1C[C@H](C[C@@H](C)[C@@H]2CC(=O)[C@H](C)/C=C(\C)[C@@H](O)[C@@H](OC)C(=O)[C@H](C)C[C@H](C)/C=C/C=C/C=C(\C)C(OCCc3ccccc3)C[C@@H]3CC[C@@H](C)[C@@](O)(O3)C(=O)C(=O)N3CCCCC3C(=O)O2)CC[C@H]1OCCO (stereo partly shown) | mTORC2 (Homo sapiens, UniProt P42345+P62942) | 1 to 10 µM
COCCCO[C@@H]1CC[C@@H](C[C@@H](C)[C@@H]2CC(=O)[C@H](C)/C=C(\C)[C@@H](O)[C@@H](OC)C(=O)[C@H](C)C[C@H](C)/C=C/C=C/C=C(\C)C(OCCO)C[C@@H]3CC[C@@H](C)[C@@](O)(O3)C(=O)C(=O)N3CCCCC3C(=O)O2)C[C@H]1OC (stereo partly shown) | mTORC2 (Homo sapiens, UniProt P42345+P62942) | > 10 µM
CO[C@@H]1C[C@H](C[C@@H](C)[C@@H]2CC(=O)[C@H](C)/C=C(\C)[C@@H](O)[C@@H](OC)C(=O)[C@H](C)C[C@H](C)/C=C/C=C/C=C(\C)C(OC[C@@H](O)c3ccccc3)C[C@@H]3CC[C@@H](C)[C@@](O)(O3)C(=O)C(=O)N3CCCCC3C(=O)O2)CC[C@H]1OCCCO (stereo partly shown) | mTORC2 (Homo sapiens, UniProt P42345+P62942) | 1 to 10 µM
